# TARGET_OR_TEST_SYSTEM: STS (Homo sapiens, UniProt P08842)
# Sequence (P08842 22-583): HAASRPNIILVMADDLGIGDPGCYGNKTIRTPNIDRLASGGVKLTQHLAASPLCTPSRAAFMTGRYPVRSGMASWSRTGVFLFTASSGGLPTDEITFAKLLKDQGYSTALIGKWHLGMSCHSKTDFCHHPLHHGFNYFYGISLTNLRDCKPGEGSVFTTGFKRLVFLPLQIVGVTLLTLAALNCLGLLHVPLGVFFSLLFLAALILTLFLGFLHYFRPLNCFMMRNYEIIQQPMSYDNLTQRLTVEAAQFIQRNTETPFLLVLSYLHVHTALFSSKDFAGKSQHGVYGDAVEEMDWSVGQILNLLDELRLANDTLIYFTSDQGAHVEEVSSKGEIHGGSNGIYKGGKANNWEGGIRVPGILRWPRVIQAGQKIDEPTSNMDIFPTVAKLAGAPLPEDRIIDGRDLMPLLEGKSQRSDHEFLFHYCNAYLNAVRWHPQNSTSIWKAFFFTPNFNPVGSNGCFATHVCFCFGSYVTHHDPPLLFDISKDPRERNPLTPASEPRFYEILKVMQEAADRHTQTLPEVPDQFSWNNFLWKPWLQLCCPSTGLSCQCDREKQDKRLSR
# METHOD_NOTES: Plate assay, % inhibition
# DETAILS: read-out: Plate assay % inhibition
Rule: inhibition at 1 µM of -10% or more gives Condition met; anything lower gives Condition not met.

{"COMPOUND": "CC1=C2CCC3c4ccc(OS(N)(=O)=O)cc4CCC3C2CC1 (stereo not shown)", "TARGET_OR_TEST_SYSTEM": "STS (Homo sapiens, UniProt P08842)", "LABEL_CLASS": "Condition met"}
{"COMPOUND": "COc1cc2c(cc1O)CCC1C2CC[C@@]2(C)C1CC[C@@]2(O)Cc1ccc(C(C)(C)C)cc1 (stereo partly shown)", "TARGET_OR_TEST_SYSTEM": "STS (Homo sapiens, UniProt P08842)", "LABEL_CLASS": "Condition not met"}
{"COMPOUND": "COc1cc2c(cc1OS(N)(=O)=O)CCC1C2CCC2(C)C(OS(N)(=O)=O)CCC12 (stereo not shown)", "TARGET_OR_TEST_SYSTEM": "STS (Homo sapiens, UniProt P08842)", "LABEL_CLASS": "Condition met"}
{"COMPOUND": "CC12CCC3c4ccc(OS(N)(=O)=O)cc4CCC3C1CCC2OS(N)(=O)=O (stereo not shown) [BLE99031B]", "TARGET_OR_TEST_SYSTEM": "STS (Homo sapiens, UniProt P08842)", "LABEL_CLASS": "Condition met"}
{"COMPOUND": "COc1cc2c(cc1O)CCC1C2CC[C@@]2(C)C1CC[C@@]2(O)Cc1ccccc1 (stereo partly shown)", "TARGET_OR_TEST_SYSTEM": "STS (Homo sapiens, UniProt P08842)", "LABEL_CLASS": "Condition not met"}

# ---- query compound ----
Inquiry: State whether the measured inhibition at 1 µM reaches -10%, counting equality as reaching it, for COc1cc2c(cc1OS(N)(=O)=O)CC[C@@H]1[C@@H]2CC[C@@]2(C)[C@H]1CC[C@@]2(O)Cc1ccccc1
Reply text: Condition not met
